method: Cytotoxicity against human foreskin fibroblasts after 5 days by colorimetric assay
Type: cell-based
condition_details: human foreskin fibroblasts (HFF cells), read-out: TD50
quantity_kind: CC50 at 120 h

Item under review: `CCCCCC/C(C)=N\N=C1/NC(=O)CS1` . Reported CC50 at 120 h?
≥ 320 µM

Could you do the same for `C/C(=N/N=C1/SCC(=O)N1Cc1ccccc1)c1cc2ccccc2oc1=O` , please?
≥ 320 µM

What do you have for `O=C1CS/C(=N/N=C\c2c[nH]c3ccccc23)N1Cc1ccccc1` ?
102 µM

Request: CC1CCCC/C1=N/N=C1\NC(=O)CS1 (stereo unspecified)
≥ 320 µM

Could you do the same for `O=C1CS/C(=N/N=C\c2ccncc2)N1Cc1ccccc1` , please?
203 µM

Again, but for CC1CCC/C1=N/N=C1/SCC(=O)N1Cc1ccccc1 (stereo unspecified)
≥ 320 µM

* * *

method: Cytotoxicity against human foreskin fibroblasts after 5 days by colorimetric assay
Format: cell-based
condition_details: human foreskin fibroblasts (HFF cells), read-out: TD50
quantity_kind: CC50 at 120 h

> print(dat)
                                 molecule  assay.result
1                  CC(C)=N/N=C1\NC(=O)CS1      ≥ 320 µM
2    CCCC/C(CC)=N\N=C1\SCC(=O)N1Cc1ccccc1      ≥ 320 µM
3  C/C(=N/N=C1/SCC(=O)N1Cc1ccccc1)c1cccs1      ≥ 320 µM
4    O=C1CS/C(=N/N=C2CCCCCCC2)N1Cc1ccccc1        205 µM

Please look up its CC50 at 120 h: `C/C(=N/N=C1\NC(=O)CS1)c1cc2ccccc2oc1=O`
≥ 320 µM

Same question, CC1CC/C(=N/N=C2\NC(=O)CS2)C1 (configuration not stated) this time
≥ 320 µM

Also check `C/C(=N/N=C1\NC(=O)CS1)c1cccs1`
≥ 320 µM

And what about the molecule `C/C(=N/N=C1/SCC(=O)N1Cc1ccccc1)c1ccccn1` ?
≥ 320 µM

And the next one, `CCCCCC/C(C)=N\N=C1\SCC(=O)N1Cc1ccccc1` ?
109 µM

Query `COc1cc(Cc2cnc(N)nc2N)cc(OC)c1OC` next
≥ 320 µM

Another molecule to look at: `CC(C)=N/N=C1/SCC(=O)N1Cc1ccccc1`
≥ 320 µM

Would you mind doing `O=C1CS/C(=N/N=C\c2cccs2)N1Cc1ccccc1` as well?
54 µM

* * *

CC50 at 120 h values by entry
method: Cytotoxicity against human foreskin fibroblasts after 5 days by colorimetric assay
Format: cell-based
condition_details: human foreskin fibroblasts (HFF cells), read-out: TD50

A selection of reference data follows.
> print(dat)
                               smiles.repr  assay.result
1                CCC/C(C)=N\N=C1/NC(=O)CS1      ≥ 320 µM
2                   O=C1CSC(NN=C2CCCC2)=N1      ≥ 320 µM
3  C/C(=N/N=C1/SCC(=O)N1Cc1ccccc1)C1CCCCC1         60 µM
4              O=C1CS/C(=N/N=C\c2ccncc2)N1      ≥ 320 µM
5       CCC/C(C)=N\N=C1\SCC(=O)N1Cc1ccccc1      ≥ 320 µM

Please give the measured CC50 at 120 h for this molecule: `O=C1CS/C(=N/N=C\c2cccc3ccccc23)N1`
≥ 320 µM

Query `CCCCC/C(C)=N\N=C1/NC(=O)CS1` next
320 µM

And then `O=C1CS/C(=N/N=C2CCCCC2)N1Cc1ccccc1` , what is it?
≥ 320 µM

Now consider `C/C(=N/N=C1\NC(=O)CS1)c1ccco1` and answer again.
≥ 320 µM

Thanks! And `C/C(=N/N=C1/SCC(=O)N1Cc1ccccc1)c1ccncc1` ?
183 µM

* * *

method: Therapeutic index, ratio of TD50 for human foreskin fibroblasts to IC50 for Toxoplasma gondii infected in human foreskin fibroblasts
condition_details: read-out: TI
Entries and their measured selectivity ratio follow.
// keep it numeric: no unit symbol after the value

> print(dat)
                      compound  assay.result
1  C=CCC/C(C)=N\N=C1/NC(=O)CS1             3

What value of selectivity ratio has been recorded for this entry: `C/C(=N/N=C1/SCC(=O)N1Cc1ccccc1)c1ccncc1`
5

Try the compound `CCCCCC/C(C)=N\N=C1\SCC(=O)N1Cc1ccccc1`
6

Now try CC1CCCC/C1=N/N=C1\NC(=O)CS1 (centres undefined) .
2

* * *

method: Cytotoxicity against human foreskin fibroblasts after 5 days by colorimetric assay
Type: cell-based
condition_details: human foreskin fibroblasts (HFF cells), read-out: TD50
As shown below, each of these molecules has a reported CC50 at 120 h value.

Field: example entries. Status: answers known.
> print(dat)
                                   molecule  quantity.kind  assay.result
1      O=C1CS/C(=N/N=C\c2cccnc2)N1Cc1ccccc1  CC50 at 120 h        239 µM
2  CC1CC/C(=N/N=C2/SCC(=O)N2Cc2ccccc2)C1 (configuration not stated)  CC50 at 120 h      ≥ 320 µM
3  CC1CCC/C(=N/N=C2/SCC(=O)N2Cc2ccccc2)C1 (configuration not stated)  CC50 at 120 h         95 µM
4  CC(C)(C)C1CCCC/C1=N/N=C1/SCC(=O)N1Cc1ccccc1 (configuration not stated)  CC50 at 120 h      ≥ 320 µM
5  CC1CCC(=N/N=C2\NC(=O)CS2)CC1 (configuration not stated)  CC50 at 120 h      ≥ 320 µM
6            C/C(=N/N=C1\NC(=O)CS1)c1ccccc1  CC50 at 120 h      ≥ 320 µM
7      C=CCC/C(C)=N\N=C1\SCC(=O)N1Cc1ccccc1  CC50 at 120 h      ≥ 320 µM
8         O=C1CS/C(=N/N=C2CCCC2)N1Cc1ccccc1  CC50 at 120 h      ≥ 320 µM

Which CC50 at 120 h value is on record for `C/C(=N/N=C1/SCC(=O)N1Cc1ccccc1)c1ccccc1` ?
≥ 320 µM

Next entry: `CC(C)=C/C(C)=N\N=C1\SCC(=O)N1Cc1ccccc1`
67 µM

How about this molecule: `O=C1CS/C(=N/N=C\c2ccc3c(c2)OCO3)N1`
≥ 320 µM

Query `O=C1CSC(NN=C2CCCCCCC2)=N1` next
309 µM

* * *

method: Cytotoxicity against human foreskin fibroblasts after 5 days by colorimetric assay
Type: cell-based
condition_details: human foreskin fibroblasts (HFF cells), read-out: TD50
Recorded CC50 at 120 h, one value per entry.

Example molecules with recorded CC50 at 120 h:
> print(dat)
                                   molecule  assay.result
1  C/C(=N/N=C1/SCC(=O)N1Cc1ccccc1)c1ccc2ccccc2c1      ≥ 320 µM
2      C/C(=N/N=C1\NC(=O)CS1)c1ccc2ccccc2c1      ≥ 320 µM
3               O=C1CS/C(=N/N=C\c2cccnc2)N1      ≥ 320 µM
4  CC1CCC(=N/N=C2/SCC(=O)N2Cc2ccccc2)CC1 (centres undefined)        286 µM
5       O=C1CS/C(=N/N=C\c2ccco2)N1Cc1ccccc1      ≥ 320 µM

The record that follows has no CC50 at 120 h shown yet.
What does the record list as CC50 at 120 h for `O=C1CS/C(=N/N=C\c2c[nH]c3ccccc23)N1` ?
≥ 320 µM

* * *

method: Therapeutic index, ratio of TD50 for human foreskin fibroblasts to IC50 for Toxoplasma gondii infected in human foreskin fibroblasts
condition_details: read-out: TI
Please note: selectivity ratio exactly at 4 is 0.0. Only values below 4 get 1.0.

Consider the worked cases shown below.
> print(dat)
                              compound  assigned.category
1      CC(C)=N/N=C1/SCC(=O)N1Cc1ccccc1                1.0
2  O=C1CS/C(=N/N=C\c2ccco2)N1Cc1ccccc1                0.0

Is selectivity ratio of `COc1cc(Cc2cnc(N)nc2N)cc(OC)c1OC` strictly below 4?
0.0

Next compound: `C/C(=N/N=C1/SCC(=O)N1Cc1ccccc1)c1cccnc1`
1.0

Now give it for `CCCCC/C(C)=N\N=C1/NC(=O)CS1` too.
1.0

How about `O=C1CS/C(=N/N=C\c2cccc3ccccc23)N1` ?
0.0

* * *

In this section, each of the compounds is paired with its reported CC50 at 120 h.
method: Cytotoxicity against human foreskin fibroblasts after 5 days by colorimetric assay
Format: cell-based
condition_details: human foreskin fibroblasts (HFF cells), read-out: TD50

# count of solved cases: 2
> print(dat)
                           smiles.repr  assay.result
1  O=C1CS/C(=N/N=C2CCCCCC2)N1Cc1ccccc1      ≥ 320 µM
2         C/C(CC(C)C)=N/N=C1\NC(=O)CS1        290 µM

Next:
Please report the recorded CC50 at 120 h for `C/C(=N/N=C1\NC(=O)CS1)c1cccnc1` .
≥ 320 µM

These data points were gathered from ChEMBL document CHEMBL3352341.
